- Tested on: Pseudomonas aeruginosa
- assay-procedure: Antibacterial activity against Pseudomonas aeruginosa at 100 ug after 24 hrs by agar well diffusion method
- Format: functional
- condition: read-out: DIZ
recorded-endpoint: zone of inhibition at 100 µg/disc (mm)
Numbers only, in mm.

Worked examples follow.
[
  {
    "molecule": "O=C(Nc1nc(-c2ccc(Cl)cc2)cs1)c1n[nH]cc1-c1ccccc1",
    "recorded-result": 26
  },
  {
    "molecule": "Cc1ccc(-c2c[nH]c(NC(=O)c3c[nH]cc3-c3ccccc3)n2)cc1",
    "recorded-result": 14
  },
  {
    "molecule": "O=C(Nc1nc(-c2ccc(Cl)cc2)c[nH]1)c1c[nH]cc1-c1ccccc1",
    "recorded-result": 28
  }
]

Please supply zone of inhibition at 100 µg/disc for each of the following items, keeping them in order.
1. O=C(Nc1nc(-c2ccccc2)c[nH]1)c1c[nH]cc1-c1ccccc1
2. O=C(Nc1nc(-c2ccc(Cl)cc2)co1)c1n[nH]cc1-c1ccccc1
3. O=C(/C=C/c1ccccc1)Nc1nc(-c2ccccc2)cs1
4. O=C(N[C@H](CO)[C@H](O)c1ccc([N+](=O)[O-])cc1)C(Cl)Cl [CHLORAMPHENICOL]

Result:
15
21
18
30

Please supply zone of inhibition at 100 µg/disc for each of the following items, keeping them in order.
1. O=C(/C=C/c1ccccc1)Nc1nc(-c2ccc(Cl)cc2)c[nH]1
2. O=C(/C=C/c1ccccc1)Nc1nc(-c2ccc(Cl)cc2)co1
3. O=C(/C=C/c1ccccc1)Nc1nc(-c2ccccc2)c[nH]1

Result:
1: 33; 2: 22; 3: 17

----------
- Tested on: Staphylococcus aureus
- assay-procedure: Antibacterial activity against Staphylococcus aureus at 35 degC after 24 hrs by broth dilution method
- Format: functional
recorded-endpoint: MIC (µg)
Numbers only, in µg.

Worked examples follow.
[
  {
    "smiles-representation": "O=C(/C=C/c1ccccc1)Nc1nc(-c2ccc(Cl)cc2)c[nH]1",
    "recorded-endpoint": "MIC",
    "recorded-result": 12.5
  },
  {
    "smiles-representation": "O=C(Nc1nc(-c2ccc(Cl)cc2)c[nH]1)c1n[nH]cc1-c1ccccc1",
    "recorded-endpoint": "MIC",
    "recorded-result": 50
  },
  {
    "smiles-representation": "O=C(Nc1nc(-c2ccc(Cl)cc2)c[nH]1)c1c[nH]cc1-c1ccccc1",
    "recorded-endpoint": "MIC",
    "recorded-result": 50
  }
]

# ---- query compound ----
Problem: Identify measured MIC corresponding to O=C(N[C@H](CO)[C@H](O)c1ccc([N+](=O)[O-])cc1)C(Cl)Cl
Result: 6.25

----------
- System: Pseudomonas aeruginosa
- assay-procedure: Antibacterial activity against Pseudomonas aeruginosa at 100 ug after 24 hrs by agar well diffusion method
- Assay type: functional
- condition: read-out: DIZ
recorded-endpoint: zone of inhibition at 100 µg/disc (mm)
One number for each entry, in mm.

[
  {
    "compound": "O=C(Nc1nc(-c2ccc(Cl)cc2)c[nH]1)c1n[nH]cc1-c1ccccc1",
    "units-of-measure": "mm",
    "zone of inhibition at 100 µg/disc": 32
  },
  {
    "compound": "O=C(Nc1nc(-c2ccccc2)c[nH]1)C1=NNCC1c1ccccc1 (centres undefined)",
    "units-of-measure": "mm",
    "zone of inhibition at 100 µg/disc": 14
  }
]

Please supply zone of inhibition at 100 µg/disc for each of the following items, keeping them in order.
1. Cc1ccc(-c2c[nH]c(NC(=O)c3n[nH]cc3-c3ccccc3)n2)cc1
2. O=C(/C=C/c1ccccc1)Nc1nc(-c2ccc(Cl)cc2)cs1
3. O=C(Nc1nc(-c2ccc(Cl)cc2)cs1)C1=NNCC1c1ccccc1 (centres undefined)

Result:
10
27
23

Please supply zone of inhibition at 100 µg/disc for each of the following items, keeping them in order.
1. O=C(Nc1nc(-c2ccccc2)cs1)c1n[nH]cc1-c1ccccc1
2. Cc1ccc(-c2csc(NC(=O)/C=C/c3ccccc3)n2)cc1
3. Cc1ccc(-c2csc(NC(=O)C3=NNCC3c3ccccc3)n2)cc1 (centres undefined)

Result:
[11, 17, 13]

Please supply zone of inhibition at 100 µg/disc for each of the following items, keeping them in order.
1. O=C(Nc1nc(-c2ccccc2)cs1)c1c[nH]cc1-c1ccccc1
2. O=C(Nc1nc(-c2ccccc2)co1)c1n[nH]cc1-c1ccccc1
3. Cc1ccc(-c2c[nH]c(NC(=O)/C=C/c3ccccc3)n2)cc1

Result:
[16, 12, 16]

Please supply zone of inhibition at 100 µg/disc for each of the following items, keeping them in order.
1. Cc1ccc(-c2csc(NC(=O)c3c[nH]cc3-c3ccccc3)n2)cc1
2. Cc1ccc(-c2csc(NC(=O)c3n[nH]cc3-c3ccccc3)n2)cc1
3. O=C(Nc1nc(-c2ccc(Cl)cc2)co1)C1=NNCC1c1ccccc1 (centres undefined)
4. Cc1ccc(-c2c[nH]c(NC(=O)C3=NNCC3c3ccccc3)n2)cc1 (centres undefined)
5. O=C(Nc1nc(-c2ccc(Cl)cc2)cs1)c1c[nH]cc1-c1ccccc1
6. O=C(Nc1nc(-c2ccc(Cl)cc2)co1)c1c[nH]cc1-c1ccccc1

Result:
1. 15
2. 11
3. 19
4. 13
5. 25
6. 20

Please supply zone of inhibition at 100 µg/disc for each of the following items, keeping them in order.
1. O=C(Nc1nc(-c2ccccc2)c[nH]1)c1n[nH]cc1-c1ccccc1
2. O=C(Nc1nc(-c2ccc(Cl)cc2)c[nH]1)C1=NNCC1c1ccccc1 (centres undefined)

Result:
11
24

----------
Assign zone of inhibition at 100 µg/disc to each entry below.
- Tested on: Klebsiella pneumoniae
- assay-procedure: Antibacterial activity against Klebsiella pneumoniae at 100 ug after 24 hrs by agar well diffusion method
- Assay type: functional
- condition: read-out: DIZ
Please state the value followed by its unit.

[
  {
    "compound": "O=C(Nc1nc(-c2ccccc2)cs1)c1c[nH]cc1-c1ccccc1",
    "zone of inhibition at 100 µg/disc": "24 mm"
  },
  {
    "compound": "O=C(Nc1nc(-c2ccccc2)c[nH]1)c1n[nH]cc1-c1ccccc1",
    "zone of inhibition at 100 µg/disc": "14 mm"
  },
  {
    "compound": "O=C(Nc1nc(-c2ccc(Cl)cc2)cs1)c1n[nH]cc1-c1ccccc1",
    "zone of inhibition at 100 µg/disc": "33 mm"
  }
]

Please supply zone of inhibition at 100 µg/disc for each of the following items, keeping them in order.
1. O=C(Nc1nc(-c2ccc(Cl)cc2)co1)C1=NNCC1c1ccccc1 (configuration not stated)
2. O=C(/C=C/c1ccccc1)Nc1nc(-c2ccc(Cl)cc2)co1
3. O=C(Nc1nc(-c2ccc(Cl)cc2)c[nH]1)c1c[nH]cc1-c1ccccc1
4. O=C(Nc1nc(-c2ccc(Cl)cc2)c[nH]1)C1=NNCC1c1ccccc1 (configuration not stated)
5. O=C(Nc1nc(-c2ccc(Cl)cc2)co1)c1n[nH]cc1-c1ccccc1

Result:
1. 24 mm
2. 27 mm
3. 36 mm
4. 30 mm
5. 24 mm

Please supply zone of inhibition at 100 µg/disc for each of the following items, keeping them in order.
1. Cc1ccc(-c2c[nH]c(NC(=O)c3n[nH]cc3-c3ccccc3)n2)cc1
2. Cc1ccc(-c2csc(NC(=O)c3c[nH]cc3-c3ccccc3)n2)cc1
3. O=C(N[C@H](CO)[C@H](O)c1ccc([N+](=O)[O-])cc1)C(Cl)Cl [CHLORAMPHENICOL]
4. O=C(Nc1nc(-c2ccccc2)co1)c1n[nH]cc1-c1ccccc1

Result:
1: 13 mm; 2: 23 mm; 3: 42 mm; 4: 17 mm

Please supply zone of inhibition at 100 µg/disc for each of the following items, keeping them in order.
1. O=C(/C=C/c1ccccc1)Nc1nc(-c2ccc(Cl)cc2)c[nH]1
2. O=C(Nc1nc(-c2ccccc2)c[nH]1)C1=NNCC1c1ccccc1 (configuration not stated)
3. Cc1ccc(-c2c[nH]c(NC(=O)c3c[nH]cc3-c3ccccc3)n2)cc1

Result:
40 mm
19 mm
21 mm

Please supply zone of inhibition at 100 µg/disc for each of the following items, keeping them in order.
1. O=C(Nc1nc(-c2ccc(Cl)cc2)c[nH]1)c1n[nH]cc1-c1ccccc1
2. Cc1ccc(-c2c[nH]c(NC(=O)/C=C/c3ccccc3)n2)cc1

Result:
39 mm
25 mm
